pKd by entry:
# study.target: T1, Human CD27 ECD truncated (ECD 1-121, cleavage site, His6) (human)
# T1 construct: also called human CD27 ECD with His Tag; CD27-His
# T1 chain: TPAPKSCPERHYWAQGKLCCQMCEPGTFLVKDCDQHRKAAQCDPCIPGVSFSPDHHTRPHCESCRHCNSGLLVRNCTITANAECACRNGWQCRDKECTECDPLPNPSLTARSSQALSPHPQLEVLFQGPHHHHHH
# protocol: ProteOn SPR, culture supernatants
pKd: −log10 of the molar value.
recorded.endpoint: pKd

* M163 (antibody, human IgG4, V domains shown, also called H196,L223) VH: QVQLVQSGAEVKKPGASVKVSCKASGYAFSSSWMNWVRQAPGQGLEWMGRIYSGDGDTNYNGKFKGRVTMTRDTSTSTVYMELSSLRSEDTAVYYCARSDYYGDYGFAYWGQGTLVTVSS VL: DIQMTQSPSSLSASVGDRVTITCKASQSVDYWSDSFMNWYQQKPGKAPKLLIYAASNLESGVPSRFSGSGSGTDFTLTISSLQPEDFATYYCQQSNEDPYTFGQGTKVEIK | 9.52
* M166 (antibody, human IgG4, V domains shown, also called H196,L217) VH: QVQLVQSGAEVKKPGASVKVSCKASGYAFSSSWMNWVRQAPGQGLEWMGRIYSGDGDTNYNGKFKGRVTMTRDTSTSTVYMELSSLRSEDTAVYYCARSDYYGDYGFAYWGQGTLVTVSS VL: DIQMTQSPSSLSASVGDRVTITCKASQSVDYAHESFMNWYQQKPGKAPKLLIYAASNLESGVPSRFSGSGSGTDFTLTISSLQPEDFATYYCQQSNEDPYTFGQGTKVEIK | 10.00
